Where do these numbers come from? They come from ChEMBL document CHEMBL4130423.

target: Beta-glucuronidase (Bos taurus)
pIC50: −log10 of the molar value.
METRIC NAME: pIC50

A. Cc1cc(S(=O)(=O)Oc2cccc3cccnc23)c(C)cc1Cl
B. O=[N+]([O-])c1cccc(S(=O)(=O)Nc2cccc3cccnc23)c1
C. CCCc1ccc(S(=O)(=O)Oc2cccc3cccnc23)cc1
D. O=S(=O)(Oc1cccc2cccnc12)c1ccc(Cl)cc1Cl
E. O=S(=O)(Nc1cccc2ncccc12)c1cc(Cl)ccc1Cl
In: From the items above, give an ordering by pIC50 that starts at the lowest reported number. Respond with the label ranking, as requested.
Out: C, A, B, D, E

a. COc1ccc(S(=O)(=O)Nc2cccc3cccnc23)cc1OC
b. O=S(=O)(Nc1cnc2ccccc2c1)c1ccc(Cl)cc1Cl
In: I need your help: which of the pair a , b has higher pIC50? State your choice using its label.
Out: b

----------
biological target: Beta-glucuronidase (Bos taurus); assay: Potency index, ratio of saccharic acid 1,4-lactone IC50 to test compound IC50 for bovine liver beta-glucuronidase
METRIC NAME: Ratio IC50

>>> df
                          molecule_smiles  numeric_readout
0  O=S(=O)(Nc1cccc2cccnc12)c1ccc(Cl)cc1Cl                8
1  O=S(=O)(Nc1cnc2ccccc2c1)c1ccc(Cl)cc1Cl                6
2  O=S(=O)(Nc1cccc2ncccc12)c1ccc(Cl)cc1Cl               24

1. O=S(=O)(Nc1cccc2ncccc12)c1cc(Cl)cc(Cl)c1O
2. O=[N+]([O-])c1cccc(S(=O)(=O)Nc2cccc3cccnc23)c1
In: Compare 1 and 2 and name the one whose reported Ratio IC50 is smaller. Respond using the label that marks the chosen record.
Out: 2
(2: 3, 1: 30)

----------
Biological target: UniProtKB A3KMY8
Sequence (A3KMY8 whole entry): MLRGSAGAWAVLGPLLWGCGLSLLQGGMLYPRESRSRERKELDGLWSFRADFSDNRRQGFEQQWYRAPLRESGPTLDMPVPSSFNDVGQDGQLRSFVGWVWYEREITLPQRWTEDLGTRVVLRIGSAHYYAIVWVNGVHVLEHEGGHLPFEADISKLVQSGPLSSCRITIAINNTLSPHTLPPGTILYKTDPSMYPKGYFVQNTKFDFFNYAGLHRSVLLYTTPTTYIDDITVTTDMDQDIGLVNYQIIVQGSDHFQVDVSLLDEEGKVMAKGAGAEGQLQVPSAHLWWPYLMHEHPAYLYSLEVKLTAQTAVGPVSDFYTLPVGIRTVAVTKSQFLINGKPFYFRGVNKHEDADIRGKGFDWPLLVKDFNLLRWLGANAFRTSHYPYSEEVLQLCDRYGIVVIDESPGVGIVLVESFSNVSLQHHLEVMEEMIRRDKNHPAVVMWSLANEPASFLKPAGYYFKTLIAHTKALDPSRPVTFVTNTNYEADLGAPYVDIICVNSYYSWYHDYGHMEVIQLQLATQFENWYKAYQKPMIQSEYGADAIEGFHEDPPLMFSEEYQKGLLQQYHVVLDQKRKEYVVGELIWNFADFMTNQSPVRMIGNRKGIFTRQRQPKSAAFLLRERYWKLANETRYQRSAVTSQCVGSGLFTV
METRIC NAME: IC50 (µM)

Known results for compounds:
>>> print(df.to_string())
                            molecule_smiles  numeric_readout
0    O=S(=O)(Nc1cccc2cccnc12)c1ccc(Cl)cc1Cl              6.1
1  O=[N+]([O-])c1ccc(S(=O)(=O)Nc2cnc3ccccc3c2)cc1             31.6
2  O=[N+]([O-])c1ccc(S(=O)(=O)Oc2cccc3cccnc23)cc1             15.4
3  O=[N+]([O-])c1ccccc1S(=O)(=O)Nc1cnc2ccccc2c1              8.1
4    COc1ccc(Br)cc1S(=O)(=O)Nc1cnc2ccccc2c1             66.5

I. O=[N+]([O-])c1ccc(S(=O)(=O)Nc2cccc3cccnc23)cc1
II. O=S(=O)(Nc1cnc2ccccc2c1)c1ccccc1
In: Hey, between I and II which has a smaller measured IC50? // output: label of the selected item
Out: I

P. O=S(=O)(Nc1cnc2ccccc2c1)c1cc(Cl)ccc1Cl
Q. O=S(=O)(Nc1cccc2cccnc12)c1ccccc1
R. CCCc1ccc(S(=O)(=O)Nc2cnc3ccccc3c2)cc1
In: Exam item: list the entries in increasing order of IC50. List labels; respect the requested ordering.
Out: P, R, Q
